From: the supplement of paper PMC11246515

Reported values of total protein half-life in vivo for individual entries
EXPERIMENTAL DETAILS: total protein half-life in vivo (active degradation + dilution); higher = more stable protein
RUN PARAMETERS: wild type E. coli NCM3722; growth: P-lim chemostat; doubling time 12 h
The reply should be a number in h, with the unit left off.

# ITEM SEQUENCE, total protein half-life in vivo, h
measured = [
    ("MVINCAFIGFGKSTTRYHLPYVLNRKDSWHVAHIFRRHAKPEEQAPIYSHIHFTSDLDEVLNDPDVKLVVVCTHADSHFEYAKRALEAGKNVLVEKPFTPTLAQAKELFALAKSKGLTVTPYQNRRFDSCFLTAKKAIESGKLGEIVEVESHFDYYRPVAETKPGLPQDGAFYGLGVHTMDQIISLFGRPDHVAYDIRSLRNKANPDDTFEAQLFYGDLKAIVKTSHLVKIDYPKFIVHGKKGSFIKYGIDQQETSLKANIMPGEPGFAADDSVGVLEYVNDEGVTVREEMKPEMGDYGRVYDALYQTITHGAPNYVKESEVLTNLEILERGFEQASPSTVTLAK", 12.3),
]

Task: Report total protein half-life in vivo for `MSTLEPAAQSKPPGGFKLWLSQLQMKHGRKLVIALPYIWLILLFLLPFLIVFKISLAEMARAIPPYTELMEWADGQLSITLNLGNFLQLTDDPLYFDAYLQSLQVAAISTFCCLLIGYPLAWAVAHSKPSTRNILLLLVILPSWTSFLIRVYAWMGILKNNGVLNNFLLWLGVIDQPLTILHTNLAVYIGIVYAYVPFMVLPIYTALIRIDYSLVEAALDLGARPLKTFFTVIVPLTKGGIIAGSMLVFIPAVGEFVIPELLGGPDSIMIGRVLWQEFFNNRDWPVASAVAIIMLLLLIVPIMWFHKHQQKSVGEHG`
Result: 13.2

----------
EXPERIMENTAL DETAILS: total protein half-life in vivo (active degradation + dilution); higher = more stable protein
RUN PARAMETERS: wild type E. coli NCM3722; growth: P-lim chemostat; doubling time 6 h
Reported values of total protein half-life in vivo for individual entries
The reply should be a number in h, with the unit left off.

Worked examples, 5 sequences total:
# ITEM SEQUENCE, RECORDED METRIC, RESULT UNITS, READING
records = [
    ("MQILLANPRGFCAGVDRAISIVENALAIYGAPIYVRHEVVHNRYVVDSLRERGAIFIEQISEVPDGAILIFSAHGVSQAVRNEAKSRDLTVFDATCPLVTKVHMEVARASRRGEESILIGHAGHPEVEGTMGQYSNPEGGMYLVESPDDVWKLTVKNEEKLSFMTQTTLSVDDTSDVIDALRKRFPKIVGPRKDDICYATTNRQEAVRALAEQAEVVLVVGSKNSSNSNRLAELAQRMGKRAFLIDDAKDIQEEWVKEVKCVGVTAGASAPDILVQNVVARLQQLGGGEAIPLEGREENIVFEVPKELRVDIREVD", "total protein half-life in vivo", "h", 2.89),
    ("MFILWYSASSTFGKDSDIVMGVRAQQKEKTRRSLVEAAFSQLSAERSFASLSLREVAREAGIAPTSFYRHFRDVDELGLTMVDESGLMLRQLMRQARQRIAKGGSVIRTSVSTFMEFIGNNPNAFRLLLRERSGTSAAFRAAVAREIQHFIAELADYLELENHMPRAFTEAQAEAMVTIVFSAGAEALDVGVEQRRQLEERLVLQLRMISKGAYYWYRREQEKTAIIPGNVKDE [P0ACU5]", "total protein half-life in vivo", "h", 5.31),
    ("MSEKVVFSQLSRKFIDENDATPAEAQQVVYYSLAIGHHLGVIDCLEAALTCPWDEYLAWIATLEAGSEARRKMEGVPKYGEIVIDINHVPMLANAFDKARAAQTSQQQEWSTMLLSMLHDIHQENAIYLMVRRLRD [P0AEV7]", "total protein half-life in vivo", "h", 3.21),
    ("MPRFAANLSMMFTEVPFIERFAAARKAGFDAVEFLFPYNYSTLQIQKQLEQNHLTLALFNTAPGDINAGEWGLSALPGREHEAHADIDLALEYALALNCEQVHVMAGVVPAGEDAERYRAVFIDNIRYAADRFAPHGKRILVEALSPGVKPHYLFSSQYQALAIVEEVARDNVFIQLDTFHAQKVDGNLTHLIRDYAGKYAHVQIAGLPDRHEPDDGEINYPWLFRLFDEVGYQGWIGCEYKPRGLTEEGLGWFDAWR", "total protein half-life in vivo", "h", 4.28),
    ("MMIRERIEEKLRAAFQPVFLEVVDESYRHNVPAGSESHFKVVLVSDRFTGERFLNRHRMIYSTLAEELSTTVHALALHTYTIKEWEGLQDTVFASPPCRGAGSIA [P0ABE2]", "total protein half-life in vivo", "h", 3.23),
]

Let's switch to this sequence now.
Task: Report total protein half-life in vivo for MSQPLLSVNGLMMRFGGLLAVNNVNLELYPQEIVSLIGPNGAGKTTVFNCLTGFYKPTGGTILLRDQHLEGLPGQQIARMGVVRTFQHVRLFREMTVIENLLVAQHQQLKTGLFSGLLKTPSFRRAQSEALDRAATWLERIGLLEHANRQASNLAYGDQRRLEIARCMVTQPEILMLDEPAAGLNPKETKELDELIAELRNHHNTTILLIEHDMKLVMGISDRIYVVNQGTPLANGTPEQIRNNPDVIRAYLGEA [P0A9S7]
Result: 6.12
